# Experiment notes: wn = mass fraction of the nth substance listed
# Experimental setup: 298.15 K; 101.3 kPa; Liquid; w1 = 0.3
So I've got a bunch of molecules here, and I need their mass density values.
Numbers only, in kg/m3.

Example results:
>>> df
                                   molecule  value_reported
0  CC(C)(N)CO [2-amino-2-methylpropan-1-ol] + O          997.41
1              OCCNCCO [diethanolamine] + O          1037.4
2              NCCO [2-aminoethan-1-ol] + O          1012.1

// below: mass density requested for another molecule
Give mass density for CN(CCO)CCO [N-methyldiethanolamine] + O
1027.5
